Provide the recorded T/C for the entries that follow.
system: CD2F1 mice, L1210 leukemia ip, survival T/C; assay: NCI In Vivo Anticancer Drug Screen. Data for tumor model L1210 Leukemia (intraperitoneal) in CD2F1 (CDF1) mice; conditions: endpoint: mean survival time; dose: 400.0 mg/kg/injection; schedule: Q04DX003 (ip); vehicle: saline with Tween-80; higher = longer survival
Inconclusive results and toxic doses are left out.

stdin: Reported T/C for Cc1ccc(S(=O)(=O)OC2CCC3(C)C(CCC4C3CCC3(C)C(C(C)CCCC(C)C)CCC43)C2)cc1 (stereo not given) : what is it?
stdout: 89 % of control

stdin: Give the measured T/C of "CCc1cccc(OS(=O)(=O)c2cccc([N+](=O)[O-])c2)c1" .
stdout: 101 % of control

stdin: Look up T/C: "O=C(O)CCCSc1nc2ccccc2s1"
stdout: 98 % of control

stdin: For the compound shown here, NC(C(=O)O)C(O)c1ccc2c(c1)OCO2 (stereo not given) , give the reported T/C.
stdout: 95 % of control

stdin: Entry "CCC(C)(S(=O)(=O)CC)S(=O)(=O)CC" has what T/C?
stdout: 98 % of control

Entry source: PubChem BioAssay AID256
